ASSAY_SYSTEM: UniProt:P62937
Sequence (P62937 whole entry, looked up): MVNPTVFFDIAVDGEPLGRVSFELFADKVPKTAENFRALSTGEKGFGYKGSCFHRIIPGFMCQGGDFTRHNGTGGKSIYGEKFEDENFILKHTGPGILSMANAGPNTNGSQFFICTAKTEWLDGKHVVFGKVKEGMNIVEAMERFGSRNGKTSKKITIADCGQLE
ASSAY_NOTES: Binding affinity to cyclophilin A in human Jurkat cell lysates at 1.1 uM after 24 hrs by SDS-PAGE analysis
Active and inactive are the calls of the source. The rule behind the calls is not given here.
Select the matching outcome among active, inactive

Consider the worked cases shown below.
SMILES_CODE: CC[C@@H]1NC(=O)[C@H]([C@H](O)[C@H](C)C/C=N\OCC(=O)NCCCC(=O)NCCCCNC(=O)CCS(=O)(=O)c2nnnn2CCCCCNC(=O)CCCC[C@@H]2SC[C@@H]3NC(=O)N[C@@H]32)N(C)C(=O)[C@H](C(C)C)N(C)C(=O)[C@H](CC(C)C)N(C)C(=O)[C@H](CC(C)C)N(C)C(=O)[C@@H](C)NC(=O)[C@H](C)NC(=O)[C@H](CC(C)C)N(C)C(=O)[C@H](C(C)C)NC(=O)[C@H](CC(C)C)N(C)C(=O)CN(C)C1=O
CLASS_NAME: active

SMILES_CODE: CC(C)(C)OC(=O)NCCCC(=O)NCCCCNC(=O)CCSc1nnnn1CCCCCNC(=O)CCCC[C@@H]1SC[C@@H]2NC(=O)N[C@@H]21
CLASS_NAME: inactive

SMILES_CODE: CC(C)(C)OC(=O)NCCCC(=O)NCCCCNC(=O)CCS(=O)(=O)c1nnnn1CCCCCNC(=O)CCCC[C@@H]1SC[C@@H]2NC(=O)N[C@@H]21
CLASS_NAME: inactive

Assay outcome for `CC[C@@H]1NC(=O)[C@H]([C@H](O)[C@H](C)C/C=N\OCC(=O)NCCCC(=O)NCCCCNC(=O)CCSc2nnnn2CCCCCNC(=O)CCCC[C@@H]2SC[C@@H]3NC(=O)N[C@@H]32)N(C)C(=O)[C@H](C(C)C)N(C)C(=O)[C@H](CC(C)C)N(C)C(=O)[C@H](CC(C)C)N(C)C(=O)[C@@H](C)NC(=O)[C@H](C)NC(=O)[C@H](CC(C)C)N(C)C(=O)[C@H](C(C)C)NC(=O)[C@H](CC(C)C)N(C)C(=O)CN(C)C1=O` : what was it?
active
